# tested target: Progesterone receptor (Bos taurus)
# Sequence (Q690N0 whole entry): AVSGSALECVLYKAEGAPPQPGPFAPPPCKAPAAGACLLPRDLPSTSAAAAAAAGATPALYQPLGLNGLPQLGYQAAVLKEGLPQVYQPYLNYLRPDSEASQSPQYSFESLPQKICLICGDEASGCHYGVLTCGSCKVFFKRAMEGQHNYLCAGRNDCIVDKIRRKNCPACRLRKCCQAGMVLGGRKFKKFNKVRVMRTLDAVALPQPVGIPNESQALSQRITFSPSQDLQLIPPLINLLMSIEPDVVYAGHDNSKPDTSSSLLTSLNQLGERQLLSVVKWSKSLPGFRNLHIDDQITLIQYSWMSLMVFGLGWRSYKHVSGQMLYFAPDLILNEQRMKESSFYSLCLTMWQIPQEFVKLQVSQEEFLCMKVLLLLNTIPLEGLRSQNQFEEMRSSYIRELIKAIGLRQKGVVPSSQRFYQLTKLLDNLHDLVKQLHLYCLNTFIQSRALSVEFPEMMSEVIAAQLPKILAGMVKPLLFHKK
# procedure summary: DRUGMATRIX: Progesterone radioligand binding (ligand: [3H] R-5020)
# Type: tissue-based, Uterus
# measurement context: Not Active = under 50% inhibition at 10 µM; read-out: IC50
pIC50: −log10 of the molar value.
Assign criterion met to entries whose pIC50 meets or exceeds 5; assign criterion not met to the rest.

Does CC(=O)OCC(=O)[C@@]12OC(C)(C)O[C@@H]1C[C@H]1[C@@H]3C[C@H](F)C4=CC(=O)C=C[C@]4(C)[C@@]3(F)[C@@H](O)C[C@@]12C [FLUOCINONIDE] have a reported pIC50 of at least 5?
criterion met

Does "C#C[C@]1(O)CC[C@H]2[C@@H]3CCC4=CC(=O)CC[C@]4(C)[C@H]3CC[C@@]21C" have a reported pIC50 of at least 5?
criterion met

Does "C[C@]12CC[C@H]3[C@@H](CCC4=CC(=O)CC[C@@H]43)[C@@H]1CC[C@@H]2O" have a reported pIC50 of at least 5?
criterion met

Does Clc1ccc(COC(Cn2ccnc2)c2ccc(Cl)cc2Cl)c(Cl)c1 (stereo not given) have a reported pIC50 of at least 5?
criterion not met

Does "Cc1c(O)cccc1C(=O)N[C@@H](CSc1ccccc1)[C@H](O)CN1C[C@H]2CCCC[C@H]2C[C@H]1C(=O)NC(C)(C)C" have a reported pIC50 of at least 5?
criterion not met

====

# tested target: Cytochrome P450 2C19 (Homo sapiens); further: in other assays of this panel Not Active means under 50% inhibition at 10 µM
# Sequence (P33261 whole entry): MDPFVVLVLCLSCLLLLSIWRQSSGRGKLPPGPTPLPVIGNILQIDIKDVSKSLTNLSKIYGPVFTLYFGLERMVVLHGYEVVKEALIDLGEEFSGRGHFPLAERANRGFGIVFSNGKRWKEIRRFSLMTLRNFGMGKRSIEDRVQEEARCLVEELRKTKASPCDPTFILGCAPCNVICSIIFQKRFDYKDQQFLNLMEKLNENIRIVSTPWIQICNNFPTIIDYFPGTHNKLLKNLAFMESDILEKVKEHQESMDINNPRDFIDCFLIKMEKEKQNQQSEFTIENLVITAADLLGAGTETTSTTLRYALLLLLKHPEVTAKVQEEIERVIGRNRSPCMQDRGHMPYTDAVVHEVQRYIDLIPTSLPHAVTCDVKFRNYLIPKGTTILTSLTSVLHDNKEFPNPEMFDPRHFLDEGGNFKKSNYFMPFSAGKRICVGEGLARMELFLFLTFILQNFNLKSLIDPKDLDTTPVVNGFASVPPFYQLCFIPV
# measurement context: bti-tn-5b1-4
measured property: Ki

>>> print(df.to_string())
                                   compound      result
0  COC(=O)[C@H]1[C@H]2C[C@@H]3c4[nH]c5cc(OC)ccc5c4CCN3C[C@H]2C[C@@H](OC(=O)c2cc(OC)c(OC)c(OC)c2)[C@@H]1OC  Not Active
1  COc1ccnc(C[S+]([O-])c2nc3ccc(OC(F)F)cc3[nH]2)c1OC (centres undefined)  Not Active
2                O=C(O)CC(O)(CC(=O)O)C(=O)O  Not Active
3  C#C[C@]1(O)CC[C@H]2[C@@H]3CCC4=CC(=O)CC[C@]4(C)[C@H]3CC[C@@]21C  Not Active

====

# tested target: Platelet-activating factor receptor (Homo sapiens, UniProt P25105); further: in other assays of this panel Not Active means under 50% inhibition at 10 µM
# Sequence (P25105 whole entry): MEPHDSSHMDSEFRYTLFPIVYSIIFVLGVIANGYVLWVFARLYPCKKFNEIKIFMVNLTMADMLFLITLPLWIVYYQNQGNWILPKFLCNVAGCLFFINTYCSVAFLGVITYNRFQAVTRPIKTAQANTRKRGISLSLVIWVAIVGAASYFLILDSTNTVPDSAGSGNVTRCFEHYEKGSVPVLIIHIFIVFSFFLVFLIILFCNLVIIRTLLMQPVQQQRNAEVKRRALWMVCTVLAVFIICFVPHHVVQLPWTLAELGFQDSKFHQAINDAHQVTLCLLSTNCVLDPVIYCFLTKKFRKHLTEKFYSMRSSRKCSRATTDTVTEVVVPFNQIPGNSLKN
# Type: tissue-based
measured property: IC50

compound	measured property	result
CC(C)C[C@H]1C(=O)N2CCC[C@H]2[C@]2(O)O[C@](NC(=O)[C@@H]3C=C4c5cccc6[nH]cc(c56)C[C@H]4N(C)C3)(C(C)C)C(=O)N12 [ERGOCRYPTINE]	IC50	Not Active
CCCCC1=NC2(CCCC2)C(=O)N1Cc1ccc(-c2ccccc2-c2nnn[nH]2)cc1 [IRBESARTAN]	IC50	Not Active
CC(=N)S [THIOACETAMIDE]	IC50	Not Active
CCCCCCCCNC(C)C(O)c1ccc(SC(C)C)cc1 (stereo not drawn) [SULOCTIDIL]	IC50	Not Active
Cc1ccc(C)c(OCCCC(C)(C)C(=O)O)c1 [GEMFIBROZIL]	IC50	Not Active
C[C@]12CC[C@@H]3c4ccc(O)cc4CC[C@H]3[C@@H]1C[C@@H](O)[C@@H]2O [ESTRIOL]	IC50	Not Active
C[C@H]1[C@H](NC(=O)/C(=N\OC(C)(C)C(=O)O)c2csc(N)n2)C(=O)N1S(=O)(=O)O [AZTREONAM]	IC50	Not Active

Report IC50 for CC(C)(C(=O)O)c1ccc(C(O)CCCN2CCC(C(O)(c3ccccc3)c3ccccc3)CC2)cc1 (stereo not drawn) [FEXOFENADINE] tested on Platelet-activating factor receptor (Homo sapiens, UniProt P25105). Further: in other assays of this panel Not Active means under 50% inhibition at 10 µM.
Not Active

====

# tested target: Glycine receptor (Rattus norvegicus, UniProt P22771+P24524+P07727+P20781); further: in other assays of this panel Not Active means under 50% inhibition at 10 µM
# Assay type: cell membranes, Wistar, Spinal cord, Membrane
measured property: IC50

compound	tested target	IC50
CC(C)NC[C@@H](O)COc1cccc2ccccc12 [DEXPROPRANOLOL]	Glycine receptor (Rattus norvegicus, UniProt P22771+P24524+P07727+P20781)	Not Active
CC(=O)OCC(=O)[C@@]12OC(C)(C)O[C@@H]1C[C@H]1[C@@H]3C[C@H](F)C4=CC(=O)C=C[C@]4(C)[C@@]3(F)[C@@H](O)C[C@@]12C [FLUOCINONIDE]	Glycine receptor (Rattus norvegicus, UniProt P22771+P24524+P07727+P20781)	Not Active
CN1[C@@H]2CC[C@H]1C[C@@H](OC(c1ccccc1)c1ccccc1)C2 [BENZTROPINE]	Glycine receptor (Rattus norvegicus, UniProt P22771+P24524+P07727+P20781)	Not Active
O=C(O)CCNC(=O)c1ccc(/N=N/c2ccc(O)c(C(=O)O)c2)cc1 [BALSALAZIDE]	Glycine receptor (Rattus norvegicus, UniProt P22771+P24524+P07727+P20781)	Not Active
ClC(Cl)(Cl)Cl [CARBON TETRACHLORIDE]	Glycine receptor (Rattus norvegicus, UniProt P22771+P24524+P07727+P20781)	Not Active
CN1CCN(c2c(F)cc3c(=O)c(C(=O)O)cn(CCF)c3c2F)CC1 [FLEROXACIN]	Glycine receptor (Rattus norvegicus, UniProt P22771+P24524+P07727+P20781)	Not Active
OCCOCCN1CCN(C2=Nc3ccccc3Sc3ccccc32)CC1 [QUETIAPINE]	Glycine receptor (Rattus norvegicus, UniProt P22771+P24524+P07727+P20781)	Not Active
O=C(O)c1ccccc1O [SALICYLIC ACID]	Glycine receptor (Rattus norvegicus, UniProt P22771+P24524+P07727+P20781)	Not Active
CO/N=C(\C(=O)N[C@@H]1C(=O)N2C(C(=O)O)=C(COC(C)=O)CS[C@H]12)c1csc(N)n1 [CEFOTAXIME]	Glycine receptor (Rattus norvegicus, UniProt P22771+P24524+P07727+P20781)	Not Active
CC(O)(P(=O)(O)O)P(=O)(O)O [ETIDRONIC ACID]	Glycine receptor (Rattus norvegicus, UniProt P22771+P24524+P07727+P20781)	Not Active

Report IC50 for COC(=O)[C@H]1[C@H]2C[C@@H]3c4[nH]c5cc(OC)ccc5c4CCN3C[C@H]2C[C@@H](OC(=O)c2cc(OC)c(OC)c(OC)c2)[C@@H]1OC [RESERPINE] tested on Glycine receptor (Rattus norvegicus, UniProt P22771+P24524+P07727+P20781). Further: in other assays of this panel Not Active means under 50% inhibition at 10 µM.
Not Active

Report IC50 for O=c1c(-c2ccc(O)cc2)coc2cc(O)cc(O)c12 [GENISTEIN] tested on Glycine receptor (Rattus norvegicus, UniProt P22771+P24524+P07727+P20781). Further: in other assays of this panel Not Active means under 50% inhibition at 10 µM.
Not Active

Report IC50 for C[S+](C)[O-] [DIMETHYL SULFOXIDE] tested on Glycine receptor (Rattus norvegicus, UniProt P22771+P24524+P07727+P20781). Further: in other assays of this panel Not Active means under 50% inhibition at 10 µM.
Not Active

Report IC50 for CC(C)NC[C@H](O)COc1cccc2ccccc12 [LEVOPROPRANOLOL] tested on Glycine receptor (Rattus norvegicus, UniProt P22771+P24524+P07727+P20781). Further: in other assays of this panel Not Active means under 50% inhibition at 10 µM.
Not Active

Report IC50 for Cc1cccc(C)c1NC(=O)C1CCCCN1C (stereo not drawn) [MEPIVACAINE] tested on Glycine receptor (Rattus norvegicus, UniProt P22771+P24524+P07727+P20781). Further: in other assays of this panel Not Active means under 50% inhibition at 10 µM.
Not Active

Report IC50 for CCn1cc(C(=O)O)c(=O)c2cc(F)c(N3CCNC(C)C3)c(F)c21 (stereo not drawn) [LOMEFLOXACIN] tested on Glycine receptor (Rattus norvegicus, UniProt P22771+P24524+P07727+P20781). Further: in other assays of this panel Not Active means under 50% inhibition at 10 µM.
Not Active

Report IC50 for CCN(C(C)=O)c1cccc(-c2ccnc3c(C#N)cnn23)c1 [ZALEPLON] tested on Glycine receptor (Rattus norvegicus, UniProt P22771+P24524+P07727+P20781). Further: in other assays of this panel Not Active means under 50% inhibition at 10 µM.
Not Active

Report IC50 for CC(C)NCC(O)c1ccccc1Cl (stereo not drawn) [CLORPRENALINE] tested on Glycine receptor (Rattus norvegicus, UniProt P22771+P24524+P07727+P20781). Further: in other assays of this panel Not Active means under 50% inhibition at 10 µM.
Not Active

====

# tested target: D(4) dopamine receptor (Homo sapiens, UniProt P21917)
# Sequence (P21917 whole entry): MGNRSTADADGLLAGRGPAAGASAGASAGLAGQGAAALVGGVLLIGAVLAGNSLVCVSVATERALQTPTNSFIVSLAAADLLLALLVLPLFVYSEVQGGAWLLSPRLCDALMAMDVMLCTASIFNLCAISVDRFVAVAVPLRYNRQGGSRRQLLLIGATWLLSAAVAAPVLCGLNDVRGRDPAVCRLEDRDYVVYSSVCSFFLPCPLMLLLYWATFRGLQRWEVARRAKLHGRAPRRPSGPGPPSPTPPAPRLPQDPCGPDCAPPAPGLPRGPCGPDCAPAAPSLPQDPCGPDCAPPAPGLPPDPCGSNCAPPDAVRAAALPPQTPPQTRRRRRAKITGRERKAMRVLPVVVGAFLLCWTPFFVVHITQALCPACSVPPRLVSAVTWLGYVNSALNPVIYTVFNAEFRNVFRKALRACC
# procedure summary: DRUGMATRIX: Dopamine D4.2 radioligand binding (ligand: [3H] Spiperone)
# Format: cell membranes, CHO-K1, Membrane
# measurement context: cho-k1; Not Active = under 50% inhibition at 10 µM
measured property: IC50

Look over these answered cases.
compound	result
CCN(CC)CCNC(=O)c1ccc(N)cc1 [PROCAINAMIDE]	Not Active
Cc1cc(O)cc(C)c1Cl [CHLOROXYLENOL]	Not Active
CO/N=C(\C(=O)N[C@@H]1C(=O)N2C(C(=O)O)=C(COC(C)=O)CS[C@H]12)c1csc(N)n1 [CEFOTAXIME]	Not Active
C#C[C@]1(O)CC[C@H]2[C@@H]3CCC4=CC(=O)CC[C@]4(C)[C@H]3CC[C@@]21C [ETHISTERONE]	Not Active
NNCCc1ccccc1 [PHENELZINE]	Not Active
CN1C[C@@H]2C[C@H]1CN2c1cc2c(cc1F)c(=O)c(C(=O)O)cn2C1CC1 [DANOFLOXACIN]	Not Active

What value of measured IC50 is listed for "COc1ccccc1N" ?
Not Active

What value of measured IC50 is listed for O=c1[nH]c(=O)n([C@H]2C[C@H](O)[C@@H](CO)O2)cc1F [FLOXURIDINE] ?
Not Active

What value of measured IC50 is listed for CN1[C@@H]2CC[C@H]1C[C@@H](OC(c1ccccc1)c1ccccc1)C2 [BENZTROPINE] ?
Not Active
